System Under Test: Glutamate NMDA receptor (Rattus norvegicus) (UniProt P35439+Q00959+Q00960+Q00961+Q62645+Q8VHN2+Q9R1M7)
Experiment Summary: Affinity for the NMDA receptor site was assessed by its ability to displace [3H]TCP from its binding site in rat brain at a concentration of 100 uM
Assay type: tissue-based
Exercise: for every item that follows, state its recorded inhibition.
Output should be the measured figure followed by the unit it is expressed in.

Input: Any idea what its inhibition is? The compound is Cc1cc2nc(CC(N)C(=O)O)n(CP(=O)(O)O)c2cc1C (single isomer, unassigned; (-))
Output: 88.5%

Input: Moving on to the next compound: CCOC(=O)C(N)Cc1nc2ccccc2n1CP(=O)(O)O (single isomer, unassigned; (-))
Output: 0%

Input: Moving on to the next compound: NC(Cc1nc2ccccc2n1CC(=O)O)C(=O)O (single isomer, unassigned; (-))
Output: 9.5%

Input: Moving on to the next compound: NC(Cc1nc2cc(C(F)(F)F)ccc2n1CP(=O)(O)O)C(=O)O (configuration not stated)
Output: 40%

Input: Moving on to the next compound: NC(Cc1nc2cccc(Cl)c2n1CP(=O)(O)O)C(=O)O (single isomer, unassigned; (-))
Output: 28.1%

Input: Moving on to the next compound: NC(Cc1nc2ccccc2n1CCP(=O)(O)O)C(=O)O (single isomer, unassigned; (-))
Output: 9.5%

---
Input: Any idea what its inhibition is? The compound is NC(Cc1nc2ccccc2n1CP(=O)(O)O)C(=O)O (stereo in doubt; 8)
Output: 29.1%

Origin of measurements: ChEMBL document CHEMBL1134686
